- assayComment: Cytotoxicity against human L123 cells after 48 hrs by MTT assay
- Format: cell-based
The entries below come with measured IC50 values attached.
endpointName: IC50

# molecule, val
rows = [
    ("COc1cc(/C=C/C(=O)C2=C(/C=C/c3ccc(O)c(OC)c3)N=C3Sc4ccccc4N3C2c2ccc(Cl)cc2)ccc1O (stereo not given)", "> 100 uM/ml"),
    ("COc1cc(/C=C/C(=O)C(=Cc2ccc(N(C)C)cc2)C(=O)/C=C/c2ccc(O)c(OC)c2)ccc1O", "> 100 uM/ml"),
    ("COc1cc(/C=C/C(=O)C2=C(/C=C/c3ccc(O)c(OC)c3)N=C3Sc4ccccc4N3C2c2c(Cl)cccc2Cl)ccc1O (stereo not given)", "> 100 uM/ml"),
    ("COc1cc(/C=C/C(=O)C2=C(/C=C/c3ccc(O)c(OC)c3)N=C3Sc4ccccc4N3C2c2ccccc2)ccc1O (stereo not given)", "> 100 uM/ml"),
    ("COc1cc(/C=C/C(=O)C2=C(/C=C/c3ccc(O)c(OC)c3)N=C3Sc4ccccc4N3C2c2ccccc2O)ccc1O (stereo not given)", "50 uM/ml"),
    ("COc1cc(/C=C/c2cc(/C=C/c3ccc(O)c(OC)c3)n(-c3ccc([N+](=O)[O-])cc3[N+](=O)[O-])n2)ccc1O", "> 100 uM/ml"),
    ("COc1cc(/C=C/C(=O)C2=C(/C=C/c3ccc(O)c(OC)c3)N=C3Sc4ccccc4N3C2c2ccc([N+](=O)[O-])cc2)ccc1O (stereo not given)", "> 100 uM/ml"),
    ("COc1cc(/C=C/c2cc(/C=C/c3ccc(O)c(OC)c3)n(C(=O)c3ccncc3)n2)ccc1O", "> 100 uM/ml"),
    ("COc1cc(C=C(C(=O)/C=C/c2ccc(O)c(OC)c2)C(=O)/C=C/c2ccc(O)c(OC)c2)ccc1O", "> 100 uM/ml"),
    ("COc1cc(/C=C/C(=O)C(=Cc2ccccc2O)C(=O)/C=C/c2ccc(O)c(OC)c2)ccc1O", "50 uM/ml"),
]
